test: qHTS for Inhibitors of human tyrosyl-DNA phosphodiesterase 1 (TDP1): qHTS in cells in absence of CPT; conditions: DT40 Tdp1-/- hTDP1 cells, no CPT, ATP luminescence, 48 h; note: nearly all actives have a fitted effect of over 55% in size
About 64,000 (15%) of roughly 420,000 compounds were called active. Roughly 27% stayed inconclusive and do not appear here. Calls come from the whole dose curve; as a rule, active = well fitted inhibition curve with a large enough effect; inconclusive = small, poorly fitted or top-dose-only effect; inactive = flat fitted curve, though single readings scatter. These entries were drawn from the full list.
Classes used: active, inactive

{"Compound": "O=C(CSc1nnc(-c2ccc(NS(=O)(=O)c3ccccc3)cc2)o1)NCC1CCCO1 (configuration not stated)", "Assigned category": "inactive"}
{"Compound": "Cc1c(CCO)c(=O)n(-c2ccccc2)n1S(=O)(=O)c1ccc(F)cc1", "Assigned category": "inactive"}
{"Compound": "Cc1ccc(NC(=O)CCC(=O)N/N=C/c2ccco2)c(C)c1", "Assigned category": "inactive"}
{"Compound": "Cc1ccc(OCC(=O)N/N=C\\c2ccco2)c(C)c1", "Assigned category": "inactive"}
{"Compound": "CC(C)NC(=O)C(=O)N/N=C/c1ccco1", "Assigned category": "inactive"}
{"Compound": "COc1ccccc1NC(=O)c1oc2ccccc2c1NC(=O)COc1ccccc1OC", "Assigned category": "inactive"}
{"Compound": "CCN(C(=O)Cn1c(=O)nc(-c2ccccc2)c2cc(Cl)ccc21)c1cccc(C)c1", "Assigned category": "inactive"}
{"Compound": "CN(C(=O)CC1C(=O)NCCN1Cc1ccc2ccccc2c1)C1CCOCC1 (configuration not stated)", "Assigned category": "inactive"}
{"Compound": "COc1ccc(-c2nc3cnc(N(C)C)nc3n(Cc3cccs3)c2=O)cc1", "Assigned category": "inactive"}
{"Compound": "C/C(N)=C(/C#N)C(=O)COC(=O)C1=NN(c2ccccc2)C(=O)CC1", "Assigned category": "inactive"}
{"Compound": "COC(=O)Cn1nc(-c2ccccc2)c2cc(Cl)ccc21", "Assigned category": "inactive"}
{"Compound": "COc1ccc(CN2CC(C(=O)NC3CCCCC3)CC2=O)cc1 (configuration not stated)", "Assigned category": "inactive"}
{"Compound": "CCc1ccc(Oc2coc3cc(OC(=O)c4cc5ccccc5oc4=O)ccc3c2=O)cc1", "Assigned category": "inactive"}
{"Compound": "O=C(O)CN(Cc1ccco1)S(=O)(=O)c1ccc(F)cc1", "Assigned category": "inactive"}
{"Compound": "COc1cc(NC(=O)c2noc3c2CSc2ccccc2-3)cc(OC)c1OC", "Assigned category": "active"}
{"Compound": "COC(=O)c1cccc(NC(=O)c2cccc(N3C(=O)CCC3=O)c2)c1", "Assigned category": "inactive"}
{"Compound": "C[C@H]1CN([C@@H](C)CO)C(=O)c2cc(-c3cccc(F)c3)cnc2O[C@@H]1CN(C)S(C)(=O)=O", "Assigned category": "inactive"}
{"Compound": "c1ccc(-n2ncc(-c3nn[nH]n3)n2)cc1", "Assigned category": "inactive"}
{"Compound": "COc1cc(OC)cc(C(=O)Nc2ncc3c(n2)CC(C)(C)CC3=O)c1", "Assigned category": "inactive"}
{"Compound": "Cc1cc(C)c(OCC(=O)N/N=C/c2ccco2)c(C)c1", "Assigned category": "active"}
{"Compound": "CC1CN(c2cc(=O)n(-c3cccc(Br)c3)c(=O)[nH]2)CC(C)O1 (configuration not stated)", "Assigned category": "inactive"}
{"Compound": "Cc1c(CN2CCC(C)CC2)c(=O)n(-c2ccccc2)n1C", "Assigned category": "inactive"}

----------
assay: qHTS for Inhibitors of human tyrosyl-DNA phosphodiesterase 1 (TDP1): qHTS in cells in absence of CPT; conditions: DT40 Tdp1-/- hTDP1 cells, no CPT, ATP luminescence, 48 h; note: nearly all actives have a fitted effect of over 55% in size; note: potency is the fitted concentration of half-maximal effect
The campaign covered roughly 420,000 compounds. About 64,000 (15%) were called active. About 27% were inconclusive and are not listed. A selection follows.
Readout type: Potency

{"Compound": "N#C/C(=C/c1cccc([N+](=O)[O-])c1)c1nnc2n1CCCCC2", "Readout type": "Potency", "Endpoint result": "13 µM (active)"}
{"Compound": "CCC(c1nnnn1Cc1ccco1)N(CCc1ccccc1)Cc1cc2cccc(C)c2[nH]c1=O (stereo not given)", "Readout type": "Potency", "Endpoint result": "29.1 µM (active)"}
{"Compound": "CCCN(Cc1cc2cccc(C)c2[nH]c1=O)S(C)(=O)=O", "Readout type": "Potency", "Endpoint result": "inactive"}
{"Compound": "N[C@H](C(=O)O)c1ccc(C(=O)O)c(O)c1", "Readout type": "Potency", "Endpoint result": "inactive"}
{"Compound": "O=C(OCCOc1ccccc1F)c1cc(S(=O)(=O)N2CCOCC2)ccc1F", "Readout type": "Potency", "Endpoint result": "inactive"}
{"Compound": "CCOc1ccc(C(C)C)cc1S(=O)(=O)n1nc(C)cc1C", "Readout type": "Potency", "Endpoint result": "13 µM (active)"}
{"Compound": "CCC(c1nnnn1Cc1ccco1)N(CCc1ccccc1)Cc1cc2ccc(OC)cc2[nH]c1=O (stereo not given)", "Readout type": "Potency", "Endpoint result": "29.1 µM (active)"}
{"Compound": "CCC(c1nnnn1Cc1ccco1)N(Cc1cc2cc(OC)ccc2[nH]c1=O)C1CCCCC1 (stereo not given)", "Readout type": "Potency", "Endpoint result": "23.1 µM (active)"}
{"Compound": "Cc1ccn2c(=O)c(C(=O)NCCC3=CCCCC3)c(O)nc2c1", "Readout type": "Potency", "Endpoint result": "20.6 µM (active)"}
{"Compound": "CC(C)(C)OC(=O)N(Cc1ccco1)S(=O)(=O)c1ccccc1Br", "Readout type": "Potency", "Endpoint result": "inactive"}

----------
assay: qHTS for Inhibitors of human tyrosyl-DNA phosphodiesterase 1 (TDP1): qHTS in cells in absence of CPT; conditions: DT40 Tdp1-/- hTDP1 cells, no CPT, ATP luminescence, 48 h; note: nearly all actives have a fitted effect of over 55% in size
About 64,000 (15%) of roughly 420,000 compounds were called active. Inconclusive results (about 27%) are left out. Calls follow the shape of the dose curve; as a rule, active = well fitted inhibition curve with a large enough effect; inconclusive = small, poorly fitted or top-dose-only effect; inactive = flat fitted curve, though single readings scatter. The list is a sample of the results.
Classes used: active, inactive

{"Compound": "COc1cc(OC)c(C(=S)N2CCCC2)cc1OC", "Assigned category": "inactive"}
{"Compound": "COc1ccc(-c2nc3cnc(Oc4ccccc4)nc3n(Cc3cccs3)c2=O)cc1", "Assigned category": "inactive"}
{"Compound": "N#Cc1ccc(CSc2ncccn2)cc1", "Assigned category": "inactive"}
{"Compound": "CC(C)C(=O)Nc1c(O)c2ccccc2[nH]c1=O", "Assigned category": "inactive"}
{"Compound": "Cc1cccc(NC(=O)CSc2nnc(-c3ccco3)o2)c1", "Assigned category": "inactive"}
{"Compound": "Cn1c(N)c(C(=O)COC(=O)c2ccccc2NCc2ccco2)c(=O)n(C)c1=O", "Assigned category": "inactive"}
{"Compound": "CCOc1ccc(CCNC(=O)c2cc3c(=O)n(C)c4ccccc4c3n2C)cc1", "Assigned category": "active"}
{"Compound": "O=C(Nc1cccnc1)c1ccc(Cl)cc1[N+](=O)[O-]", "Assigned category": "inactive"}
{"Compound": "C=CCn1c(SCc2nnc(-c3ccccc3)o2)nnc1C(O)c1ccccc1 (stereo not drawn)", "Assigned category": "inactive"}
{"Compound": "NS(=O)(=O)c1cccc(NC(=O)COC(=O)c2cc([N+](=O)[O-])ccc2N2CCCC2)c1", "Assigned category": "inactive"}
{"Compound": "COc1ccccc1CNS(=O)(=O)CC12CCC(CC1=O)C2(C)C (stereo not drawn)", "Assigned category": "inactive"}
{"Compound": "C/C(=N/NC(=O)CCc1ccccc1)c1ccco1", "Assigned category": "inactive"}
{"Compound": "CCCNC(=O)c1c(Cl)cnn1-c1ccc(C)cc1", "Assigned category": "inactive"}
{"Compound": "O=C(c1cc(-c2ccc(O)cc2)on1)N1CCOCC1", "Assigned category": "inactive"}
{"Compound": "CCCCN(C(=O)C(CCSC)N1C(=O)c2ccccc2C1=O)c1c(N)n(CCC)c(=O)[nH]c1=O (stereo not drawn)", "Assigned category": "inactive"}
{"Compound": "Cc1ccccc1C(=O)O", "Assigned category": "inactive"}
{"Compound": "CCN1C(=NCC(C)C)N[C@@H](CCc2ccccc2)[C@H](C(=O)NCC(C)C)[C@H]1C", "Assigned category": "active"}
{"Compound": "Cc1cc(NC(=O)c2cc3ccccc3o2)no1", "Assigned category": "inactive"}
{"Compound": "O=C(Cn1c(=O)n(Cc2ccco2)c(=O)c2ccccc21)NCC1CCCO1 (stereo not drawn)", "Assigned category": "inactive"}
{"Compound": "O=C(N1CCCC1)C12CC3CC(C1)CC(C(=O)N1CCCC1)(C3)C2", "Assigned category": "inactive"}
{"Compound": "Cc1ccccc1S(=O)(=O)Cc1ccc(C(=O)NCCN2CCCCC2C)o1 (stereo not drawn)", "Assigned category": "inactive"}
{"Compound": "Cc1ccc(CN(C)C[C@@H]2OCc3cnnn3CCCC(=O)N([C@@H](C)CO)C[C@H]2C)cc1", "Assigned category": "inactive"}
{"Compound": "Cn1c(C(=O)NCCc2ccsc2)cc2c(=O)n(C)c3ccccc3c21", "Assigned category": "active"}
